B1: TRIM35 (parent)
chain: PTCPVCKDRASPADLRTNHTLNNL

# Variants of: B1
# assayNotes: protein stability index of a GFP-peptide fusion (GPS, HEK-293T) (PSI 1-6); higher = more stable;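 also: lentivirally expressed fusions sorted by FACS into six bins by GFP to DsRed ratio, PSI derived from sequencing read proportions per bin multiplied by bin number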
# measurementConditions: c terminus: a fixed tail appended
Reported protein stability index values for the following variants.
reportedMetric: protein stability index

>>> measuredvalue("R16M")
2.72
>>> measuredvalue("D14K")
2.72
>>> measuredvalue("L21Q")
3.52
>>> measuredvalue("N22T")
2.76
>>> measuredvalue("S11L")
3.07
>>> measuredvalue("R16T")
2.95
>>> measuredvalue("A10P")
3.17
>>> measuredvalue("T2K")
3.52
>>> measuredvalue("N23E")
3.48
>>> measuredvalue("C3V")
4.1
>>> measuredvalue("D14F")
2.21
